Entries annotated with measured Plant response rating, Velvetleaf
System: velvetleaf
procedure_text: Test A postemergence
Format: in vivo, Abutilon theophrasti
condition: 500 g ai/ha, 0 to 100 scale, 0 no effect, 100 complete control

structure_as_smiles: CC=Cc1cnn(-c2ccccc2Oc2ncc(Cl)cn2)c1
system: velvetleaf
Plant response rating, Velvetleaf: 70
//
structure_as_smiles: COc1ccc(Oc2ncc(Br)cn2)c(-n2cc(Br)cn2)c1
system: velvetleaf
Plant response rating, Velvetleaf: 100
//
structure_as_smiles: Fc1cnc(Oc2ccccc2-n2cc(C(F)(F)F)cn2)nc1
system: velvetleaf
Plant response rating, Velvetleaf: 100
//
structure_as_smiles: Cc1cnc(Oc2ccccc2-n2cc(Br)cn2)nc1
system: velvetleaf
Plant response rating, Velvetleaf: 100

Data provenance is patent US9695155B2.
